- target-entity: Muscarinic acetylcholine receptor M1 (Rattus norvegicus, UniProt P08482)
- Sequence (P08482 whole entry): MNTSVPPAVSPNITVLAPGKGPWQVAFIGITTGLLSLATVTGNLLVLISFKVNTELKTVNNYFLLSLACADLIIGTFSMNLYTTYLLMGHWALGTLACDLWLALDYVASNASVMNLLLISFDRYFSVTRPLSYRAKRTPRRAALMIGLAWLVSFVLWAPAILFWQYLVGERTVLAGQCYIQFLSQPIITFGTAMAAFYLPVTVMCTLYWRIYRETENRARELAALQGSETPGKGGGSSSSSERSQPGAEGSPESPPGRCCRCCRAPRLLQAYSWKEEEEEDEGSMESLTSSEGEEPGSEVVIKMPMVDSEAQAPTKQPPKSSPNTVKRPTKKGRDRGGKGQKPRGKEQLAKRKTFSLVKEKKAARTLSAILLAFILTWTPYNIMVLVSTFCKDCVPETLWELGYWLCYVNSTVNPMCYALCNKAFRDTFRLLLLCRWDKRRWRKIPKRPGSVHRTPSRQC
- test-method-notes: In vitro binding affinity against Muscarinic acetylcholine receptor M1 from rat hippocampus, using [3H]pirenzepine (Pz) as radioligand.
- Type: tissue-based
Quick reference: pIC50 of the listed items.
FYI, pIC50 means -log10 of a concentration in mol per litre.

structure_smiles=CCCCCCCCc1nsnc1C1=CCCN(C)C1.O=C(O)C(=O)O result_number=7.25

Query: Give the value of pIC50 reported for the following: CCCc1nsnc1C1=CCCN(C)C1.O=C(O)C(=O)O
Result: 7.08

Query: Quickly give me recorded pIC50 for CCCCCCSc1nsnc1C1=CCCN(C)C1.O=C(O)C(=O)O
Result: 8.30

Query: Please give measured pIC50 of the following entry: CCCCCc1nsnc1C1=CCCN(C)C1.O=C(O)C(=O)O
Result: 6.77

Query: State its pIC50 for this compound: CCCCCCCCSc1nsnc1C1=CCCN(C)C1.O=C(O)C(=O)O
Result: 7.31
